tgt: recombinant human p38γ MAP kinase (Homo sapiens)
Sequence (P53778 whole entry): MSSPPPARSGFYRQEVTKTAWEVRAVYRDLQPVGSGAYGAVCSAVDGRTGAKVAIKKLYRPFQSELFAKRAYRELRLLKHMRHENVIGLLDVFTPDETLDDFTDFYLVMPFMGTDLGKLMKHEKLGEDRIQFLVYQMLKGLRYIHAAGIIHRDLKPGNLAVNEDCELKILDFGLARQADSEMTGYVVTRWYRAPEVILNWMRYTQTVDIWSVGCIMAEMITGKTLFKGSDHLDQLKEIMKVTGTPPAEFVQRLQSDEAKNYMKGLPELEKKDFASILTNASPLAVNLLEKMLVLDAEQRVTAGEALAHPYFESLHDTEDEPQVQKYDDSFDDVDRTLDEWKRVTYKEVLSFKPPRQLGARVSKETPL
assay-overview: Cell-free p38γ MAP kinase modulation assay (phosphorylation of myelin basic protein)
experimental-context: concentration to inhibit phosphorylation of myelin basic protein by 50%; INO = inhibition not observed at any concentration tested
pIC50: −log10 of the molar value.
value-type: pIC50

Data request: Please look at this compound and report its pIC50: `CC(C)c1c(C(=O)Nc2ccccc2)c(-c2ccccc2)c(-c2ccc(F)cc2)n1CC[C@@H]1C[C@@H](O)CC(=O)O1`
Data returned: ~4.30

* * *

tgt: recombinant human p38δ MAP kinase (Homo sapiens, UniProt O15264)
Sequence (O15264 whole entry): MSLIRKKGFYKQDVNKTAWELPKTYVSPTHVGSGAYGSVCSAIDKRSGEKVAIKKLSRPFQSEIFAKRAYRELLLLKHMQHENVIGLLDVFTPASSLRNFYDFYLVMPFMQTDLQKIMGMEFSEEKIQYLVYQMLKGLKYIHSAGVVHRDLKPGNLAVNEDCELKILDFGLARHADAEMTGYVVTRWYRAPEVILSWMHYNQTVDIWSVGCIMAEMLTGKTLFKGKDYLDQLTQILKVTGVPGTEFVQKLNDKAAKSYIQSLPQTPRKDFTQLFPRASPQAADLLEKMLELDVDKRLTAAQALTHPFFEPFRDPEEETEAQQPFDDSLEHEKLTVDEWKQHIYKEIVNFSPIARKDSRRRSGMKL
assay-overview: Cell-free p38δ MAP kinase modulation assay (phosphorylation of myelin basic protein)
experimental-context: concentration to inhibit phosphorylation of myelin basic protein by 50%; INO = inhibition not observed at any concentration tested
value-type: IC50 (µM)
I only need the number, in µM, no unit after it.

Data request: Please look at this molecule and report its IC50: `CC(C)c1c(C(=O)Nc2ccccc2)c(-c2ccccc2)c(-c2ccc(F)cc2)n1CC[C@@H]1C[C@@H](O)CC(=O)O1`
Data returned: 83

* * *

tgt: recombinant human p38β MAP kinase (Homo sapiens)
Sequence (Q15759 whole entry): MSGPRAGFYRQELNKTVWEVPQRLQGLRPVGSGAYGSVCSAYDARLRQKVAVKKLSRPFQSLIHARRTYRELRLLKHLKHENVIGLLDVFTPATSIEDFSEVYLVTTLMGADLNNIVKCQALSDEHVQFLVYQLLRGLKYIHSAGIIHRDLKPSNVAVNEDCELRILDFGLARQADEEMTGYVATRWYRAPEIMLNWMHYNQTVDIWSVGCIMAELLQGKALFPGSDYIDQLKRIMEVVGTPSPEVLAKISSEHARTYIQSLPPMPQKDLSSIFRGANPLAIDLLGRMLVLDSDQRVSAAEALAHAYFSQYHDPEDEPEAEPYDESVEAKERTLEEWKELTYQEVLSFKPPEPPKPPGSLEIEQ
assay-overview: Cell-free p38β MAP kinase modulation assay (phosphorylation of myelin basic protein)
experimental-context: concentration to inhibit phosphorylation of myelin basic protein by 50%; INO = inhibition not observed at any concentration tested
value-type: IC50 (µM)
I only need the number, in µM, no unit after it.

Data request: Please look at this compound and report its IC50: `CC(C)c1c(C(=O)Nc2ccccc2)c(-c2ccccc2)c(-c2ccc(F)cc2)n1CC[C@@H]1C[C@@H](O)CC(=O)O1`
Data returned: 94

* * *

tgt: human recombinant p38α protein kinase (Homo sapiens)
Construct: purchased UBI 14-251; host or cells: E. coli
Sequence (Q16539 whole entry): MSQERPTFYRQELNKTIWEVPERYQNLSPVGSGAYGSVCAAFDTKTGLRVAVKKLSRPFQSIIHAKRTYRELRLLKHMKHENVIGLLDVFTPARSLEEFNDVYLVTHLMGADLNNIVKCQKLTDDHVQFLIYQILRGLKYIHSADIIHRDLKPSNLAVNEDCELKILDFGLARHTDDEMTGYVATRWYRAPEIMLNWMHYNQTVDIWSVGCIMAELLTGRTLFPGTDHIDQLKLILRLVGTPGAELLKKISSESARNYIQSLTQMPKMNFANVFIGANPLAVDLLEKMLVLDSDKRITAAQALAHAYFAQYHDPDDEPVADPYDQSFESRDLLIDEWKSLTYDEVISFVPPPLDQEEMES
assay-overview: Cell-free p38α MAP kinase modulation assay (phosphorylation of myelin basic protein)
Type: biochemical
experimental-context: concentration to activate phosphorylation of myelin basic protein by 50%; ANO = activation not observed at any concentration tested
Method: In vitro cell-free p38α MAP kinase modulation assays were conducted by the method as described in Clerk et al., supra, (1998). Briefly, human recombinant p38α protein kinase expressed in E. Coli (UBI #14-251) was used. […] Phosphorylated MBP was detected by incubation with a mouse monoclonal IgG2a anti-phosphoMBP antibody. Bound anti-phosphoMBP antibody was quantitated by incubation with a HRP conjugated goat anti-mouse IgG.
value-type: p38α AC50

molecule	p38α AC50
CC(C)n1c(/C=C/C(O)CC(O)CC(=O)O)c(-c2ccc(F)cc2)c2ccccc21 (stereo not drawn) [Fluvastatin sodium, fluvastatin sodium, reference compound]	ANO
CC(C)c1c(C(=O)Nc2ccccc2)c(-c2ccccc2)c(-c2ccc(F)cc2)n1CC[C@@H](O)C[C@@H](O)CC(=O)[O-].CC(C)c1c(C(=O)Nc2ccccc2)c(-c2ccccc2)c(-c2ccc(F)cc2)n1CC[C@@H](O)C[C@@H](O)CC(=O)[O-].[Ca+2] [Atorvastatin calcium, atorvastatin calcium, reference compound]	ANO^d
CC(C)c1nc(N(C)S(C)(=O)=O)nc(-c2ccc(F)cc2)c1/C=C/[C@@H](O)C[C@@H](O)CC(=O)O [Rosuvastatin sodium, reference compound]	ANO
O=C([O-])C[C@H](O)C[C@H](O)/C=C/c1c(C2CC2)nc2ccccc2c1-c1ccc(F)cc1.O=C([O-])C[C@H](O)C[C@H](O)/C=C/c1c(C2CC2)nc2ccccc2c1-c1ccc(F)cc1.[Ca+2] [Pitavastatin calcium, reference compound]	ANO
CC(C)c1c(C(=O)Nc2ccccc2)c(-c2ccccc2)c(-c2ccc(F)cc2)n1CC[C@@H]1C[C@@H](O)CC(=O)O1	ANO

Data request: Using human recombinant p38α protein kinase (Homo sapiens) as the test system, report measured p38α AC50 of COCc1c(C(C)C)nc(C(C)C)c(C=CC(O)CC(O)CC(=O)[O-])c1-c1ccc(F)cc1.COCc1c(C(C)C)nc(C(C)C)c(C=CC(O)CC(O)CC(=O)[O-])c1-c1ccc(F)cc1.[Ca+2] (stereo not drawn) [Cerivastatin calcium, reference compound] .
Data returned: ANO

Hello, the source for this data is patent US20060111436A1, in case you need it.
